test system: CCRIS mutagenicity, Ames/micronucleus/aberration tests; assay: CCRIS mutagenicity studies; conditions: Test System: AMES SALMONELLA TYPHIMURIUM; Strain/Indicator: TA1537; Metabolic Activation: RAT, LIVER, S-9, AROCLOR 1254 (30%); Method: PREINCUBATION
Active and inactive are the calls of the source. The rule behind the calls is not given here.
Field 'call' accepts YES = active, NO = inactive

// query Hi, sorry to bother you, what did the test record for CC(C)CO ?
// result NO

// query Hi, sorry to bother you, what did the test record for CC=C(C)C#N ?
// result NO

// query Hi, sorry to bother you, what did the test record for CS(C)=O ?
// result NO

// query Hi, sorry to bother you, what did the test record for Cl/C=C\Cl ?
// result NO

// query Hi, sorry to bother you, what did the test record for Cc1ccc(CO)cc1 ?
// result NO

// query Hi, sorry to bother you, what did the test record for NC(N)=NC(=O)c1nc(Cl)c(N)nc1N ?
// result YES

// query Hi, sorry to bother you, what did the test record for CN(C)CCO ?
// result NO

// query Hi, sorry to bother you, what did the test record for Oc1c(Cl)ccc(Cl)c1Cl ?
// result NO

// query Hi, sorry to bother you, what did the test record for Oc1ccc(Nc2ccc3ccccc3c2)cc1 ?
// result NO

// query Hi, sorry to bother you, what did the test record for O=[N+]([O-])c1ccc(O)c([N+](=O)[O-])c1 ?
// result NO
